Value source: paper PMC7377239

tested on: iCell cardiomyocytes (human iPSC-derived cardiomyocytes); experiment: Intracellular Ca2+ flux / beating parameters in iCell cardiomyocytes (FLIPR tetra), 90 min or 24 h; assay type: cell-based; details: Homo sapiens, Cardiomyocyte, 24 h, 0.01 µM; 0.00 µM = 100.00; read-out: cm.bpm.24hrs
Where a name gives a salt, the structure may show the parent alone.
The compounds listed here are annotated with their activity at 0.01 µM.
reported-metric: activity at 0.01 µM (%)

compound	numeric-readout
Oc1cccc(-c2ccc(Cl)cc2)c1	104
O=S(=O)(O)Oc1ccc(-c2cccc(Cl)c2)cc1Cl [4-yl PCB 11 sulfate]	97.4
O=C1C=CC(=O)C(c2ccc(Cl)cc2)=C1	101
O=S(=O)(O)Oc1cc(Cl)ccc1-c1ccccc1 [2-yl PCB 3 sulfate]	111
Clc1ccc(-c2ccccc2)cc1	103
